procedureDetails: PSAC antagonists in infected red cells, primary screen, cell-based, P. falciparum Indochina, OD700, 18 h (AID 1157)
statedConditions: P. falciparum Indochina infected erythrocytes, osmotic lysis OD700, 18 h; higher = more signal, called active from +8 up or from −8 down
readoutLabel: z-score
Format: numeric value only, no unit, no commentary.

Solved cases below.
{"columns": ["compound", "z-score"],
 "data": [
  ["CCCC[C@@H]1C[C@H]1[C@@H](NC(=O)c1ccc(C(F)(F)F)cc1)c1ccc(C(=O)OC)cc1", 0.422],
  ["CN(C)CCCC[C@@H]1NC(=O)[C@H]2C[C@@H](C(=O)O)[C@@H](c3cccc(OCCO)c3)N2C1=O", 0.424]
]}

*Q* Using the record for CCOC(=O)C1=CCC(c2cc3ccccc3[nH]2)N(S(=O)(=O)c2ccccc2[N+](=O)[O-])C1 (centres undefined) , state its measured z-score.
*A* 0.631

*Q* Using the record for CCCCN1CC=CC23O[C@@H]4C=CCOC(=O)[C@@H]4[C@H]2C(=O)N(CCO)[C@@H]3C1=O (some centres undefined) , state its measured z-score.
*A* 0.381
